Target: Epidermal growth factor receptor (Homo sapiens, UniProt P00533)
Sequence (P00533 whole entry): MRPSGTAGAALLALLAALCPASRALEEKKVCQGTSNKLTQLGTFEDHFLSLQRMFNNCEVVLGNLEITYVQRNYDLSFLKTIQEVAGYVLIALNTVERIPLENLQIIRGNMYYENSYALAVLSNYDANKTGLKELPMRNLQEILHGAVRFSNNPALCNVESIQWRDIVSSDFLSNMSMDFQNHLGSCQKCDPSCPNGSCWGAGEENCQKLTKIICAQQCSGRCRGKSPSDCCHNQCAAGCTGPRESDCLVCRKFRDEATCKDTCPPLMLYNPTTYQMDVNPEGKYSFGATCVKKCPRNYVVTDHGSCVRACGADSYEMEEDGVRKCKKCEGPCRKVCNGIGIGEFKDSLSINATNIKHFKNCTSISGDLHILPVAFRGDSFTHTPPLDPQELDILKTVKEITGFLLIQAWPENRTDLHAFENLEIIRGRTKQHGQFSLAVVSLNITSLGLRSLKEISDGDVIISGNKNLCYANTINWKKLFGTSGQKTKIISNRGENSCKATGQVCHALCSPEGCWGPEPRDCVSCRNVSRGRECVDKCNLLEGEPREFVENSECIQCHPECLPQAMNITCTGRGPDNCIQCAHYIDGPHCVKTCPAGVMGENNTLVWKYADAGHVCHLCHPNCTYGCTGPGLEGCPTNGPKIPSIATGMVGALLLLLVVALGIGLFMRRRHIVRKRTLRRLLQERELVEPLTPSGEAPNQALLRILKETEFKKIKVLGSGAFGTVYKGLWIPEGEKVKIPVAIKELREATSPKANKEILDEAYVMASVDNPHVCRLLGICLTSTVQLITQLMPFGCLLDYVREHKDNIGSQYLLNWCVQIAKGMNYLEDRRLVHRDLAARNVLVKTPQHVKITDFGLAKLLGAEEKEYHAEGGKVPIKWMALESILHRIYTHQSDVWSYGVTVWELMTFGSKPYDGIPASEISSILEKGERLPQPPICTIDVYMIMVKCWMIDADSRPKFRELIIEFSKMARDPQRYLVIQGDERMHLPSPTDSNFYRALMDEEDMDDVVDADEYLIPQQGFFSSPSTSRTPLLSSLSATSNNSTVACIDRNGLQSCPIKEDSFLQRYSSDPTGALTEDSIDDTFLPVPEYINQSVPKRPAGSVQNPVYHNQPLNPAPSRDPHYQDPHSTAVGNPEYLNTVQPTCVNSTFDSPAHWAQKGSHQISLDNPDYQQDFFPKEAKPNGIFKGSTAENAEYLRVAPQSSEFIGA
Method: Inhibition of recombinant EGFR expressed in baculovirus infected Sf9 cells after 1 hr by DELFIA/time-resolved fluorimetry assay
Kindly supply the reported IC50 values for the records listed here.
Kindly answer with a numeric value in µM, unit omitted.

Challenge: Lab note: Epidermal growth factor receptor (Homo sapiens, UniProt P00533) assay, enter IC50 for COc1cccc(/C=C/C(=O)Nc2ccc3ncnc(Nc4cccc(Cl)c4)c3c2)c1 here
Response given: 6.63

Challenge: Lab note: Epidermal growth factor receptor (Homo sapiens, UniProt P00533) assay, enter IC50 for O=C(/C=C/c1cccc2ccccc12)Nc1ccc2ncnc(Nc3cccc(Cl)c3)c2c1 here
Response given: 2.81

Challenge: Lab note: Epidermal growth factor receptor (Homo sapiens, UniProt P00533) assay, enter IC50 for O=C(/C=C/c1ccc(Cl)cc1)Nc1ccc2ncnc(Nc3cccc(Br)c3)c2c1 here
Response given: 1.21

Challenge: Lab note: Epidermal growth factor receptor (Homo sapiens, UniProt P00533) assay, enter IC50 for O=C(/C=C/c1ccccc1[N+](=O)[O-])Nc1ccc2ncnc(Nc3cccc(Br)c3)c2c1 here
Response given: 1.02

Challenge: Lab note: Epidermal growth factor receptor (Homo sapiens, UniProt P00533) assay, enter IC50 for O=C(/C=C/c1cccc([N+](=O)[O-])c1)Nc1ccc2ncnc(Nc3cccc(Br)c3)c2c1 here
Response given: 0.12

Challenge: Lab note: Epidermal growth factor receptor (Homo sapiens, UniProt P00533) assay, enter IC50 for O=C(/C=C/c1ccccc1)Nc1ccc2ncnc(Nc3cccc(Cl)c3)c2c1 here
Response given: 3.61

Challenge: Lab note: Epidermal growth factor receptor (Homo sapiens, UniProt P00533) assay, enter IC50 for O=C(/C=C/c1ccc([N+](=O)[O-])cc1)Nc1ccc2ncnc(Nc3cccc(Br)c3)c2c1 here
Response given: 5.16

Challenge: Lab note: Epidermal growth factor receptor (Homo sapiens, UniProt P00533) assay, enter IC50 for O=C(/C=C/c1ccccc1Br)Nc1ccc2ncnc(Nc3cccc(Br)c3)c2c1 here
Response given: 4.28

Challenge: Lab note: Epidermal growth factor receptor (Homo sapiens, UniProt P00533) assay, enter IC50 for O=C(/C=C/c1ccc([N+](=O)[O-])cc1)Nc1ccc2ncnc(Nc3cccc(Cl)c3)c2c1 here
Response given: 3.45

Challenge: Lab note: Epidermal growth factor receptor (Homo sapiens, UniProt P00533) assay, enter IC50 for O=C(/C=C/c1ccc(Br)cc1)Nc1ccc2ncnc(Nc3cccc(Cl)c3)c2c1 here
Response given: 3.49

Challenge: Lab note: Epidermal growth factor receptor (Homo sapiens, UniProt P00533) assay, enter IC50 for COc1ccc(/C=C/C(=O)Nc2ccc3ncnc(Nc4cccc(Br)c4)c3c2)cc1 here
Response given: 7.22

Challenge: Lab note: Epidermal growth factor receptor (Homo sapiens, UniProt P00533) assay, enter IC50 for COc1cccc(/C=C/C(=O)Nc2ccc3ncnc(Nc4cccc(Br)c4)c3c2)c1 here
Response given: 6.02

Challenge: Lab note: Epidermal growth factor receptor (Homo sapiens, UniProt P00533) assay, enter IC50 for O=C(/C=C/c1cccc([N+](=O)[O-])c1)Nc1ccc2ncnc(Nc3cccc(Cl)c3)c2c1 here
Response given: 0.19

Challenge: Lab note: Epidermal growth factor receptor (Homo sapiens, UniProt P00533) assay, enter IC50 for COc1ccccc1/C=C/C(=O)Nc1ccc2ncnc(Nc3cccc(Br)c3)c2c1 here
Response given: 7.71

Cited source: ChEMBL document CHEMBL1811883
